solubility kinetic: recorded values
Details: buffer; pH 7.4; 200.0 µM
MEASURED ATTRIBUTE: solubility kinetic

>>> endpoint_value("Cc1ccc(CNc2nc(C)cs2)cc1")
"25.3 µg/mL"
>>> endpoint_value("Cc1cccc(OCC(=O)NCCNC(=O)c2ccncc2)c1")
"42.3 µg/mL"
>>> endpoint_value("O=C(O)CCSc1nc2ccccc2n1-c1ccccc1")
"> 44.8 µg/mL"
>>> endpoint_value("COc1ccc2nc(NC(=O)c3ccccc3C(=O)O)sc2c1")
"> 49.3 µg/mL"
>>> endpoint_value("NC(=O)COC(=O)Cc1coc2cc3c(cc12)CCC3")
"35.6 µg/mL"
>>> endpoint_value("CC1CCN(C(=S)c2ccc(N(C)C)cc2)CC1")
"5.4 µg/mL"
>>> endpoint_value("C=CCc1cc(Cl)ccc1OCCn1ccnc1.O=C(O)C(=O)O")
"39.5 µg/mL"
>>> endpoint_value("COc1cccc(CNC(=O)c2cc(C)nc3ccccc23)c1")
"41.1 µg/mL"
>>> endpoint_value("COc1cccc(/C=C2\\SC(=S)N(c3cccnc3)C2=O)c1OC")
"< 0.4 µg/mL"
>>> endpoint_value("COC(=O)[C@H](CCSC)NC(=O)Nc1cccc(Br)c1")
"> 54.2 µg/mL"
>>> endpoint_value("Cc1ccc(C(=O)Nc2ccccc2C(=O)Nc2ccccn2)cc1Cl")
"< 0.3 µg/mL"
>>> endpoint_value("O=C(c1cc2cc(Cl)ccc2[nH]1)N1CCC2(CC1)OCCO2")
"16 µg/mL"
>>> endpoint_value("N/C(=N\\O)c1ccc(N2CCN(c3ncccc3C(F)(F)F)CC2)nc1")
"51.7 µg/mL"
>>> endpoint_value("Cc1ccc(C(=O)COC(=O)c2cc(=O)[nH]c3ccccc23)cc1")
"1.1 µg/mL"
>>> endpoint_value("CCC(C)NC(=O)C1=CCN(S(=O)(=O)c2ccc(C)cc2)CC1 (stereo not given)")
"43.5 µg/mL"
>>> endpoint_value("Cc1ccccc1CN(C)CC(=O)Nc1c(C)cccc1C(C)C")
"12.1 µg/mL"
>>> endpoint_value("COc1ccc(Cl)cc1NC(=O)NCc1ccccn1")
"41.6 µg/mL"
>>> endpoint_value("O=C1NC2(CCCC2)Oc2ccccc21")
"> 30.5 µg/mL"
>>> endpoint_value("Cc1c(C(=O)OCC(=O)N(C)c2ccccc2)cccc1[N+](=O)[O-]")
"38.1 µg/mL"
>>> endpoint_value("Nc1cc(=O)[nH]c(SCC(=O)NC2CCCCCCC2)n1")
"> 46.6 µg/mL"
>>> endpoint_value("O=C(O)c1ccc(NC2=Nc3cccc4cccc2c34)cc1")
"36 µg/mL"
>>> endpoint_value("Cc1ccc(-c2nc(-c3ccncc3)no2)c(Cl)c1")
"0.5 µg/mL"
>>> endpoint_value("O=C(O)/C=C/C(=O)Nc1ccc(S(=O)(=O)N2CCCC2)cc1")
"> 48.7 µg/mL"
>>> endpoint_value("Cc1ccc2cc(C)c(SCC(=O)NCC3CCCO3)nc2c1 (stereo not given)")
"48.2 µg/mL"
>>> endpoint_value("CCc1cc2c(NC(Cc3ccccc3)C(=O)O)ncnc2s1 (stereo not given)")
"> 49.1 µg/mL"

###

Conditions: buffer; pH 7.4; 200.0 µM
MEASURED ATTRIBUTE: solubility kinetic

>>> endpoint_value("O=C(NCC(=O)N1CCCC1)c1ccc(Br)cc1")
"> 46.7 µg/mL"
>>> endpoint_value("CC(OC(=O)c1nsc(Cl)c1Cl)C(=O)NC1CCCCC1 (centres undefined)")
"31.6 µg/mL"
>>> endpoint_value("Cc1cc(-c2ccccc2)oc(=O)c1NC(=O)c1ccccc1")
"< 0.7 µg/mL"
>>> endpoint_value("Cc1ccc(S(=O)(=O)N(C)CC(=O)OCC(=O)c2ccc3c(c2)NC(=O)CO3)cc1")
"25 µg/mL"
>>> endpoint_value("CC1(CCC(=O)N2CCCC(Nc3ccc(F)cc3)C2)CC1 (centres undefined)")
"> 45.7 µg/mL"
>>> endpoint_value("COc1ccccc1NC(=O)c1ccc[n+]([O-])c1")
"> 36.6 µg/mL"
>>> endpoint_value("CCOc1ncccc1C(=O)Nc1nc(C(C)(C)C)cs1")
"0.6 µg/mL"
>>> endpoint_value("COc1cc(CCC(=O)Nc2nccs2)cc(OC)c1OC")
"> 48.4 µg/mL"
>>> endpoint_value("CCC(=O)Nc1ccc2c(c1)nc(CCN1CCCCC1)n2C")
"43.2 µg/mL"
>>> endpoint_value("Cc1ccc(NC(=O)COC(=O)[C@@H]2CC(O)CN2S(=O)(=O)c2ccc3c(c2)OCCO3)cc1 (some centres undefined)")
"> 71.5 µg/mL"
>>> endpoint_value("COc1ccc(C(=O)NCC(=O)N/N=C(\\C)c2ccco2)cc1OC")
"> 51.8 µg/mL"
>>> endpoint_value("Cc1ccccc1C(=O)Nc1nc(-c2cccnc2)cs1")
"3.9 µg/mL"
>>> endpoint_value("COc1cc(C(=O)O/N=C(\\N)c2cccc([N+](=O)[O-])c2)cc(OC)c1OC")
"0.3 µg/mL"
>>> endpoint_value("Cc1ccc(S(=O)(=O)N(C)C)cc1NC(=O)CN1CCCC1")
"> 48.8 µg/mL"
>>> endpoint_value("CC(NC(=O)COC(=O)C1CC1C)c1ccccc1 (centres undefined)")
"> 39.2 µg/mL"
>>> endpoint_value("CC1CC(C)CN(C(=O)CNC(=O)c2ccc3ccccc3c2)C1 (centres undefined)")
"> 48.7 µg/mL"
>>> endpoint_value("Cc1cccc2c(SCC(N)=O)nc(-c3ccccc3)nc12")
"< 0.2 µg/mL"
>>> endpoint_value("COc1ccc(NC(=O)c2cc(-c3ccccc3Cl)on2)cc1")
"< 0.4 µg/mL"
>>> endpoint_value("CNS(=O)(=O)c1cccc(C(=O)OCC(=O)N2CCN(C(=O)c3ccco3)CC2)c1")
"> 65.3 µg/mL"
>>> endpoint_value("COc1cc(C(=O)O)nc(OC)n1")
"> 27.6 µg/mL"
>>> endpoint_value("Cc1cccc(NC(=O)Cn2cc(C=O)c3ccccc32)c1")
"0.9 µg/mL"
>>> endpoint_value("Cc1ccc(NS(=O)(=O)c2cccc3nsnc23)cc1C")
"39.2 µg/mL"
>>> endpoint_value("COc1ccccc1C(=O)Nc1ccc(NC(=O)C2CCCCC2)nc1")
"0.9 µg/mL"
>>> endpoint_value("CS(=O)(=O)N1CCC(C(=O)Nc2ccc(F)c(Cl)c2)CC1")
"> 50.2 µg/mL"

###

Conditions: buffer; pH 7.4; 200.0 µM
Binary call on solubility kinetic: criterion met from 10 µg/mL upward, criterion not met beneath that.

>>> assigned_category("CC(Oc1ccccc1)C(=O)OCC(=O)NC(=O)NC1CCCCC1 (configuration not stated)")
"criterion met"
>>> assigned_category("CN(C)CCCOC(=O)c1sc2ccccc2c1Cl.Cl")
"criterion met"
>>> assigned_category("Cc1nc(NCCOc2ccccc2)sc1C(=O)Nc1ccccc1")
"criterion not met"
>>> assigned_category("Cc1ccc(S(=O)(=O)Nc2ccc(F)c(S(=O)(=O)N3CCOCC3)c2)cc1")
"criterion met"
>>> assigned_category("Oc1ccc(-c2ccccc2)cc1CN1CCCCCC1")
"criterion met"
>>> assigned_category("Cl.O=C(O)CSc1nc(-c2ccccc2)c(-c2ccccc2)[nH]1")
"criterion met"
>>> assigned_category("O=C(Nc1cc(S(=O)(=O)N2CCOCC2)ccc1N1CCOCC1)c1ccc([N+](=O)[O-])s1")
"criterion not met"
>>> assigned_category("C=CCc1cccc(CNc2cnc3ccccc3c2)c1O")
"criterion not met"
>>> assigned_category("O=C(NC(=O)N1CCCCC1)c1ccc(Cl)cc1")
"criterion met"
>>> assigned_category("O=S(=O)(c1ccc2[nH]c3c(c2c1)CCCC3)N1CCCCC1")
"criterion met"
>>> assigned_category("Cc1nc2cc(N)ccc2n1C1CCCCC1.Cl")
"criterion met"
>>> assigned_category("O=c1nc(-c2ccccc2)c2cc(Br)ccc2[nH]1")
"criterion not met"

###

Settings: buffer; pH 7.4; 200.0 µM
Label rule met for high-side solubility kinetic (at or above 6 µg/mL) and rule not met for low-side solubility kinetic (below it).

>>> assigned_category("Cc1ccc(NC(=O)c2cc(-c3ccc(F)cc3)on2)cc1C")
"rule not met"
>>> assigned_category("Cc1cccc(C(=O)O/N=C(/c2ccccc2)c2ccncc2)c1")
"rule not met"
>>> assigned_category("COc1ccc(C)cc1S(=O)(=O)Nc1ccc2c(c1)OCCO2")
"rule not met"
>>> assigned_category("CCN(CC(=O)N1CCCC1)S(=O)(=O)c1ccc(F)cc1")
"rule met"
>>> assigned_category("CCOc1ccc(C(=O)NCC(=O)N2CCC(C)CC2)cc1OCC")
"rule met"
>>> assigned_category("Fc1ccc(NC(=S)Nc2cccc3ccccc23)cc1")
"rule met"
>>> assigned_category("CCOC(=O)C1=C(C)C(c2ccc(OC)cc2)NC(=O)N1 (configuration not stated)")
"rule met"
>>> assigned_category("CC(Nc1nc(-c2ccccc2O)nc2ccccc12)c1ccccc1 (configuration not stated)")
"rule not met"
>>> assigned_category("COc1ccc(CCC(=O)N2CCCc3ccccc32)cc1")
"rule met"
>>> assigned_category("COc1cc(OC)c(S(=O)(=O)NC(C)C)cc1C(=O)O")
"rule met"
>>> assigned_category("CC(=O)N1CCN(C(=O)CNC(=O)c2ccc(Br)o2)CC1")
"rule met"
>>> assigned_category("NC(=O)C1CCN(C(=O)CCn2c(=O)oc3ccccc32)CC1")
"rule met"
>>> assigned_category("O=C(NCc1cccnc1)c1cnc2ccccc2n1")
"rule met"
>>> assigned_category("CC(=O)Nc1ccc(NC(=O)COc2ccc(-c3ccccc3)cc2)cc1")
"rule not met"
>>> assigned_category("Cc1cccc(N2C(=O)/C(=C/N3CCN(C(=O)c4ccco4)CC3)C(=O)NC2=S)c1")
"rule not met"
>>> assigned_category("CC(C)C(NC(=O)CN1C(=O)c2cccc3cccc1c23)C(C)C")
"rule not met"
>>> assigned_category("COc1ccccc1CNC(=O)C(C)Oc1ccccc1 (configuration not stated)")
"rule met"
>>> assigned_category("COc1ccc(CCNC(=O)CSCC(=O)Nc2cc(S(C)(=O)=O)ccc2Cl)cc1")
"rule met"
>>> assigned_category("O=C(Nc1cc2c(cc1Br)OCCO2)c1ccc(=O)[nH]c1")
"rule met"
>>> assigned_category("CC(C)(C)c1ccc(-c2noc(CCC(=O)N3CCOCC3)n2)cc1")
"rule met"
>>> assigned_category("Cc1ccc2c(COC(=O)C3CSC4(C)CCC(=O)N34)cc(=O)oc2c1C (configuration not stated)")
"rule met"
>>> assigned_category("Cc1cc(C(=O)Nc2ccccc2)oc(=O)c1")
"rule met"
>>> assigned_category("Cc1cc(C)n2nc(C(=O)OCC(=O)Nc3ccc(C)c(S(=O)(=O)N4CCOCC4)c3)nc2n1")
"rule met"
>>> assigned_category("O=C(NCc1ccccc1Br)c1ccncc1")
"rule met"
>>> assigned_category("O=C1OC(C(=O)NCc2ccccc2)Cc2ccccc21 (configuration not stated)")
"rule met"
>>> assigned_category("CNC(=O)CSc1nc(SC)ns1")
"rule met"
>>> assigned_category("O=C(CSc1nccc(=O)[nH]1)Nc1ccc2c(c1)OCCO2")
"rule met"
>>> assigned_category("COC(OC)c1ccc(C#N)c(SCc2ccccc2)n1")
"rule met"
>>> assigned_category("CC(NC(=O)CCCc1c[nH]c2ccccc12)c1ccc(F)cc1 (configuration not stated)")
"rule met"
>>> assigned_category("O=C(O)c1ccc(NC(=O)C2C3CCC(O3)C2C(=O)O)cc1 (configuration not stated)")
"rule met"
>>> assigned_category("CCOC(=O)c1csc(COc2ccccc2Cl)n1")
"rule not met"
>>> assigned_category("O=C(NC1CCC1)C1CCC(=O)N(Cc2cccc(F)c2)C1 (configuration not stated)")
"rule met"
>>> assigned_category("CCN(CC)c1ccc(/C=C2\\C(=O)NC(=S)N(c3ccc(OC)cc3OC)C2=O)o1")
"rule met"
>>> assigned_category("CCOC(=O)Cn1cc(C#N)c2cccc(CC)c21")
"rule met"
>>> assigned_category("O=C(NCC1CCCO1)C1CCCN1C(=O)Nc1ccc(Cl)cc1 (configuration not stated)")
"rule met"
>>> assigned_category("COc1ccc(CN(C)C(=O)c2ccc3ccccc3n2)cc1F")
"rule met"
>>> assigned_category("COc1ccc(NC(=O)CC2CC3CCC2C3)cc1S(=O)(=O)N1CCOCC1 (configuration not stated)")
"rule met"
>>> assigned_category("CC(=O)Nc1ccc(S(=O)(=O)Nc2nccs2)cc1")
"rule met"
>>> assigned_category("COC(=O)c1scc(S(=O)(=O)C(C)(C)C)c1-n1cccc1")
"rule met"
>>> assigned_category("CC(=O)Nc1sc(C)c(C)c1C(=O)OCC(=O)Nc1ccc(S(N)(=O)=O)cc1")
"rule met"
>>> assigned_category("COc1ccccc1Oc1ccccc1[N+](=O)[O-]")
"rule met"
>>> assigned_category("COc1ccc(S(=O)(=O)N2CCCCCC2)cc1C(=O)NCc1ccco1")
"rule met"
>>> assigned_category("CCCn1c(SCC(=O)NC)nc2sc3c(c2c1=O)CCC3")
"rule not met"
>>> assigned_category("CCCCc1cc(C)c(S(=O)(=O)c2ccccc2C)c(=O)[nH]1")
"rule not met"
>>> assigned_category("CNC(=O)c1c(NC(=O)c2ccc3ncsc3c2)sc(C)c1C")
"rule not met"
>>> assigned_category("CC(=O)Nc1ccc(S(=O)(=O)N(C)CC(=O)NNC(=O)Cc2nc3ccccc3n2C)cc1")
"rule met"
